# assay_target: T1, human PACAP38 (human, not fully specified; C-terminal lysine is amidated; N-terminal or C-terminal biotin in the HTRF and PC-12 cell binding assays)
# T1 peptide: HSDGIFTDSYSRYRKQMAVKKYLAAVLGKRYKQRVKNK
# test_protocol: cell-based or functional assay
observable: IC50, 0.1 nM PACAP38-induced PAC1-R mediated cAMP increase

Supply reported IC50, 0.1 nM PACAP38-induced PAC1-R mediated cAMP increase belonging to this binder: anti-PACAP antibody Ab3.H (antibody, human IgG1, kappa, N297A, V domains shown, humanized form of Ab3, full length) VH: EVQLVESGGGLVQPGGSLRLSCAASGFSFSSSDYMCWVRQAPGKGLEWIGCIDAGSSGDTYFASSAKGRFTISRDNSKNTVYLQMNSLRAEDTAVYFCARHLYGSITFAFGLWGQGTLVTVSS VL: AAQMTQSPSTLSASVGDRVTITCQASQSIGSDLAWYQQKPGKAPKLLIYDASTLASGVPSRFSGSGSGTEFTLTISSLQPDDFATYYCQGTYYSSGWYTAFGGGTKVEIKR 1320 pM

Supply reported IC50, 0.1 nM PACAP38-induced PAC1-R mediated cAMP increase belonging to this binder: anti-PACAP antibody Ab13 (antibody, human IgG1, kappa, N297A, V domains shown, full-length rabbit/human chimeric antibody) VH: QSVEESGGRLVTPGTPLTLTCTVSGFSLSSAAMNWVRQAPGKGLEWIGIIDNTAGTYYAPWAKGRFTISKTSSTTVDLKMTSPTTEDTATYFCARGGGEFFIWGPGTLVTVSS VL: AQVLTQTPSSVSAAVGGTVTINCQSSQSVHDGSYLSWYQQKPGQPPNFLIYQASNLASGVPSRFKGSGSGTQFTLTISDLECDDAATYYCAGGYSSNICGFGGGTEVVVKR 82.4 pM

Supply reported IC50, 0.1 nM PACAP38-induced PAC1-R mediated cAMP increase belonging to this binder: anti-PACAP antibody Ab3 (antibody, human IgG1, kappa, N297A, V domains shown, full-length rabbit/human chimeric antibody) VH: QEQLVESGGGLVQPEGSLTLTCTASGFSFSSSDYMCWVRQAPGKGLEWIGCIDAGSSGDTYFASWAKGRFTISKTSSTTVTLQMTSLTAADTATYFCARHLYGSITFAFGLWGQGTLVTVSS VL: AAVLTQTPSPVSAAVGGTVTINCQASQSIGSDLAWYQQKPGQPPKLLIYDASTLASGVPSRFSGSGSGTQFTLTISGVQCDDAATYYCQGTYYSSGWYTAFGGGTEVVVKR 227 pM

Supply reported IC50, 0.1 nM PACAP38-induced PAC1-R mediated cAMP increase belonging to this binder: anti-PACAP antibody Ab7 (antibody, human IgG1, kappa, N297A, V domains shown, full-length rabbit/human chimeric antibody) VH: QSVEESGGRLVTPGTPLTLTCTASGIDLSGYAMGWVRQAPGKGLEWIGDISTYGTTDYASWVNGRFTISRTSTTVTLKMTSLTTEDTATYFCARDYWLSLWGPGTLVTVSS VL: AAVLTQTPSPVSAAVGGTVTIKCQSSQSVYDNNALAWYQQKPGQPPKLLIYAASTLASGVPSRFKGSGSGTQFTLTINGVQCDDAATYYCLGGYDDPADNAFGGGTEVVVKR 111 pM

Supply reported IC50, 0.1 nM PACAP38-induced PAC1-R mediated cAMP increase belonging to this binder: anti-PACAP antibody Ab23 (antibody, human IgG1, kappa, N297A, V domains shown, full-length rabbit/human chimeric antibody; PACAP38 specific) VH: QSVEESGGRLVTPGTPLTLTCTVSGFSLNNYAMSWVRQAPGKGLEWIGIMGVNDITYYASWAKGRFTISKTSTTVDLKMTSLTTEDTATYFCTREIRDDGDSSDKLWGPGTLVTVSS VL: AIKMTQTPSSVSAAVGGTVTINCQASEDIYTNLAWYQQKPGQPPNLLIYDASDLASGVPSRFSGSGDGTQFTLTISAVQCEDAATYYCQGVAWSSNTGYGSAFGGGTEVVVKR 115 pM

Supply reported IC50, 0.1 nM PACAP38-induced PAC1-R mediated cAMP increase belonging to this binder: anti-PACAP antibody Ab12.H (antibody, human IgG1, kappa, N297A, V domains shown, humanized form of Ab12, full length) VH: EVQLVESGGGLVQPGGSLRLSCAASGFSLSSYAMGWVRQAPGKGLEWIGDISTYGTTDYASWVYGRFTISRDNSKNTVYLQMNSLRAEDTAVYFCARDYWLSLWGQGTLVTVSS VL: AAQLTQSPSTLSASVGDRVTITCQSSQSVYDNNALAWYQQKPGKAPKLLIYAASTLASGVPSRFSGSGSGTEFTLTISSLQPDDFATYYCLGGYYDPADNAFGGGTKVEIKR 114 pM
